The reported measurements were obtained from the nanobody polyreactivity screen of Harvey et al. (2022).

# experiment-description: yeast display, Sf9 membrane polyspecificity reagent, FACS + sequencing; frameworks hold sequencing errors
property: polyreactivity (PSR sort gate)

QVQIVESGGGLVQAGGSLRLSCAASGRIFRVNWIGWYRQAPGKESELVAAIRRSGGSTYYADSVKGRFTISRDNAKNTVYLQMNSLKPEDTAVYFCAAPVRQSSYTRYDSWGQGTQVTVSS high polyreactivity
QVQLVESGGGLVQAGGSLRISCAASGLTFRRNAMGGYRQAPGKERELFAAITASGGSTYYADSVTGRFTISRDNAKNTVFLQMNSLKPEETAVYYSAAVNYRWYSRNYDHYYWGQGTQVTVSS high polyreactivity

* * *

# experiment-description: yeast display, Sf9 membrane polyspecificity reagent, FACS + sequencing; frameworks hold sequencing errors
property: polyreactivity (PSR sort gate)

QVQLVESGGGLVQAGGSLRLSCAASGRTFWNYAMGWSRQAPGKERELVAVIRFSDGSTYYADSVKGRFTISRDNAKNTVYLQMNSLKPEDTAVYYCAAKGPRRWGSGFDYWGQGTQVTVSS low polyreactivity
QVHLVESGGGLVQAGGSLRLSCAASGSTFVNYTMGWYIQAPGKERELVAITIGAGRTYYADSVKGRFTISRDNAKNTVYLPMNSLKPEDTAVYYCAVRLYANSGRFDYWGQGTQVTVSS low polyreactivity
